- TEST SYSTEM: recombinant SARS-CoV-2 Main protease (Mpro) (Severe acute respiratory syndrome coronavirus 2 (2019-nCoV) (SARS-CoV-2), UniProt P0DTD1)
- ASSAY PROCEDURE: Cov Mpro Biochemical IC50 Assay
- TEST CONDITIONS: recombinant SARS-CoV-2 Mpro, fluorogenic peptide substrate; read-out: MPro IC50
ENDPOINT NAME: IC50 (nM)

STRUCTURE AS SMILES	ENDPOINT NAME	READOUT NUMBER
COc1ccc(Cl)c(-c2cnc3c(=O)n(-c4cncc5ccccc45)c(=O)[nH]c3c2)c1	IC50	5.06
Cc1cc(-c2cccc(Cl)c2-c2cc3[nH]c(=O)n(-c4cncc5ccccc45)c(=O)c3s2)cn2ncnc12	IC50	7.31
O=c1[nH]c2cc(-c3c(Cl)cccc3OCc3cccnn3)ccc2c(=O)n1-c1cncc2ccccc12	IC50	30.3
COc1cccc(F)c1-c1ccc2c(=O)n(-c3cncc4ccccc34)c(=O)[nH]c2c1	IC50	914

* * *

The following molecules are listed with their measured pIC50 values.
- TEST SYSTEM: recombinant SARS-CoV-2 Main protease (Mpro) (Severe acute respiratory syndrome coronavirus 2 (2019-nCoV) (SARS-CoV-2), UniProt P0DTD1)
- ASSAY PROCEDURE: Cov Mpro Biochemical IC50 Assay
- TEST CONDITIONS: recombinant SARS-CoV-2 Mpro, fluorogenic peptide substrate; read-out: MPro IC50
pIC50: −log10 of the molar value.
ENDPOINT NAME: pIC50

MOLECULE	ENDPOINT NAME	BOUND SIGN	READOUT NUMBER
O=c1[nH]c2cc(-c3c(Cl)cccc3Cl)sc2c(=O)n1-c1cncc2ccccc12 [Example 110]	pIC50	=	6.43
COc1ccc(Cn2c(=O)n(-c3cncc4ccccc34)c(=O)c3sc(-c4cccc5c4CCC5)cc32)cc1 [Example 167]	pIC50	=	4.30
C#Cc1ccccc1-c1ccc2c(=O)n(-c3cncc4ccccc34)c(=O)[nH]c2c1 [Example 28]	pIC50	=	6.47
Cc1ccccc1-c1cc2[nH]c(=O)n(-c3cncc4ccccc34)c(=O)c2cn1 [Example 165]	pIC50	=	5.83
N#Cc1cc(-c2cccc(Cl)c2-c2ccc3c(=O)n(-c4cncc5ccccc45)c(=O)[nH]c3c2)cnc1N1CCOCC1 [Example 277]	pIC50	=	6.91
COc1ccc(F)c(-c2ccc3c(=O)n(-c4cncc5ccccc45)c(=O)[nH]c3c2)c1 [Example 254]	pIC50	=	6.97
O=c1[nH]c2cc(-c3cccc(Cl)c3Cl)ccc2c(=O)n1-c1cncc2ccccc12 [Example 59]	pIC50	<	4.00
COc1cccc(Cl)c1-c1ccc2c(=O)n(-c3cncc4ccccc34)c(=O)[nH]c2c1 [Example 58]	pIC50	=	6.80
Cc1nocc1-c1cccc(Cl)c1-c1ccc2c(=O)n(-c3cncc4ccccc34)c(=O)[nH]c2c1 [Example 259]	pIC50	=	6.72
O=c1[nH]c2cc(-c3cc(F)c(F)cc3Cl)sc2c(=O)n1-c1cncc2ccccc12 [Example 286]	pIC50	=	7.46
COCc1ccc(Cl)c(-c2ccc3c(=O)n(-c4cncc5ccccc45)c(=O)[nH]c3c2)c1 [Example 303]	pIC50	=	6.57
N#Cc1ccccc1-c1cc(F)c2c(=O)n(-c3cncc4ccccc34)c(=O)[nH]c2c1 [Example 223]	pIC50	=	6.99
O=c1[nH]c2cc(-c3ccccc3Cl)sc2c(=O)n1-c1cncc2cccnc12 [Example 133]	pIC50	=	7.89
CC(C)Oc1ccc(Cl)c(-c2cc3[nH]c(=O)n(-c4cncc5ccccc45)c(=O)c3s2)c1 [Example 346]	pIC50	=	7.13
N#Cc1ccccc1-c1cc2[nH]c(=O)n(-c3cncc4ccccc34)c(=O)c2cc1F [Example 67]	pIC50	=	7.05
O=c1c2sc(-c3ncco3)cc2n(CC2CCCC2)c(=O)n1-c1cncc2ccccc12 [Example 170]	pIC50	=	6.72

* * *

- TEST SYSTEM: recombinant SARS-CoV-2 Main protease (Mpro) (Severe acute respiratory syndrome coronavirus 2 (2019-nCoV) (SARS-CoV-2), UniProt P0DTD1)
- ASSAY PROCEDURE: Cov Mpro Biochemical IC50 Assay
- TEST CONDITIONS: recombinant SARS-CoV-2 Mpro 7.5 nM, fluorogenic peptide substrate 40 μM; read-out: MPro IC50
The following compounds are listed with their measured IC50 values.
ENDPOINT NAME: IC50 (nM)

COMPOUND	READOUT NUMBER
COc1cc(-c2cc3[nH]c(=O)n(-c4cncc5c4c(C)cn5C)c(=O)c3s2)c(Cl)cc1F [Example 706]	5.93
Cn1ncc2cncc(-n3c(=O)[nH]c4cc(-c5ccccc5Cl)sc4c3=O)c21 [Example 495]	6.41
COc1cc(-c2cc3c(s2)c(=O)n(-c2cnccn2)c(=O)n3CCC#N)c(Cl)cc1F [Example 893]	22.1
N#Cc1cc(F)c(F)cc1-c1cc2[nH]c(=O)n(-c3cncc4ccccc34)c(=O)c2s1 [Example 540]	911
COc1ccc(Cl)c(-c2cc3[nH]c(=O)n(-c4cncc5sc(C#N)c(C)c45)c(=O)c3s2)c1 [Example 1050]	8.89
COc1cc(-c2cc3c(s2)c(=O)n(-c2cc(C)cnc2F)c(=O)n3CCC#N)c(Cl)cc1F [Example 770]	6.12
COc1ccc2cncc(-n3c(=O)[nH]c4cc(-c5c(Cl)cccc5-c5cn6ncnc6c6c5CCC6)sc4c3=O)c2c1 [Example 564]	14.6

* * *

The following compounds are listed with their measured log10(IC50) values.
- TEST SYSTEM: recombinant SARS-CoV-2 Main protease (Mpro) (Severe acute respiratory syndrome coronavirus 2 (2019-nCoV) (SARS-CoV-2))
- ASSAY PROCEDURE: Cov Mpro Biochemical IC50 Assay
- TEST CONDITIONS: recombinant SARS-CoV-2 Mpro 7.5 nM, fluorogenic peptide substrate 40 μM; read-out: MPro IC50
ENDPOINT NAME: log10(IC50) (log10 of the value in nM)

COMPOUND	READOUT NUMBER
Cc1cncc(-n2c(=O)c3sc(-c4ccccc4C#N)cc3n(CC3(C#N)CC3)c2=O)c1 [Example 802]	0.48
O=c1[nH]c2cc(-c3c(Cl)cccc3-c3cnn4c3CNCC4)ccc2c(=O)n1-c1cncc2ccccc12 [Example 474]	1.15
COc1cc(-c2cc3c(s2)c(=O)n(-c2cnnc(C)c2)c(=O)n3CCC#N)c(Cl)cc1F [Example 988]	1.80
Cn1ncc2cncc(-n3c(=O)c4sc(-c5cc(F)ccc5Cl)cc4n(CCC#N)c3=O)c21 [Example 789]	0.76
COc1cc(-c2cc3c(s2)c(=O)n(-c2cncnc2)c(=O)n3CCC#N)c(Cl)cc1F [Example 983]	0.78
COc1cc(-c2cc3c(s2)c(=O)n(-c2cncc4ccn(C)c(=O)c24)c(=O)n3CC#N)c(Cl)cc1F [Example 696]	0.50
COc1cc(-c2cc3[nH]c(=O)n(-c4cncc5nn(C)c(C)c45)c(=O)c3s2)c(Cl)cc1F [Example 754]	0.96
COc1ccc(-c2cc3[nH]c(=O)n(-c4cncc5ccccc45)c(=O)c3s2)c(Cl)c1 [Example 722]	1.53
COc1ccc(C#N)c(-c2cc3[nH]c(=O)n(-c4cncc5ccc(N6CCC(F)(F)C6)cc45)c(=O)c3s2)c1 [Example 418]	1.33
COc1cc(C#N)c(-c2cc3[nH]c(=O)n(-c4cncc5ccccc45)c(=O)c3s2)cc1OC [Example 544]	1.23
COc1cc(-c2cc3c(s2)c(=O)n(-c2cncc4cnn(C)c24)c(=O)n3CCC#N)c(Cl)cc1F [Example 642]	0.93
COc1ccc(Cl)c(-c2cc3[nH]c(=O)n(-c4cncc5c4CCCO5)c(=O)c3s2)c1 [Example 599]	0.70
COc1cc(-c2cc3c(s2)c(=O)n(-c2cnccc2C(F)(F)F)c(=O)n3CCC#N)c(Cl)cc1F [Example 861]	1.55

* * *

- TEST SYSTEM: recombinant SARS-CoV-2 Main protease (Mpro) (Severe acute respiratory syndrome coronavirus 2 (2019-nCoV) (SARS-CoV-2), UniProt P0DTD1)
- ASSAY PROCEDURE: Cov Mpro Biochemical IC50 Assay
- TEST CONDITIONS: recombinant SARS-CoV-2 Mpro 7.5 nM, fluorogenic peptide substrate 40 μM; read-out: MPro IC50
The following compounds are listed with their measured IC50 values.
ENDPOINT NAME: IC50 (µM)

COMPOUND	READOUT NUMBER
COc1cc(-c2cc3c(s2)c(=O)n(-c2cncc4cnccc24)c(=O)n3CCC#N)c(Cl)cc1F	0.0075
COc1ccc(Cl)c(-c2cc3[nH]c(=O)n(-c4cncc5sccc45)c(=O)c3s2)c1	0.00452
Cn1ncc2cncc(-n3c(=O)c4sc(-c5cc(F)c(F)cc5C#N)cc4n(CCC#N)c3=O)c21	0.0315
COc1ccc(Cl)c(-c2cc3[nH]c(=O)n(-c4cncc5ccc(N6CCO[C@H](C(F)(F)F)C6)cc45)c(=O)c3s2)c1	0.0117
COc1ccc(Cl)c(-c2cc3[nH]c(=O)n(-c4cncc5ccc(N6CCOCC6)cc45)c(=O)c3s2)c1	0.00699
Cc1c(Cl)cncc1-n1c(=O)c2sc(-c3ccccc3Cl)cc2n(CCC#N)c1=O	0.0195
COc1ccc(Cl)c(-c2cc3[nH]c(=O)n(-c4cncc5cccc(C)c45)c(=O)c3s2)c1	0.00623
COc1ccc(-c2cc3[nH]c(=O)n(-c4cncc5ccccc45)c(=O)c3s2)c(C#N)c1	0.141
COc1ccc(Cl)c(-c2cc3[nH]c(=O)n(-c4cncc5sc(C(C)(C)O)cc45)c(=O)c3s2)c1	0.00851
COc1cc(-c2cc3c(s2)c(=O)n(-c2cnccc2C)c(=O)n3CCC#N)c(Cl)cc1F (single isomer, unassigned) [Example 1031]	0.0456
COc1ccc(Cl)c(-c2cc3[nH]c(=O)n(-c4cncc5ccc(N6CCn7nc(C(F)(F)F)nc7C6)cc45)c(=O)c3s2)c1	0.00632
COc1cc(-c2cc(OC)c3c(=O)n(-c4cncc5ccccc45)c(=O)[nH]c3c2)c(C#N)cc1F [Example 679]	0.0254
COc1ccc(Cl)c(-c2cc3[nH]c(=O)n(-c4cncc5cc(C(C)(C)O)sc45)c(=O)c3s2)c1	0.00571
Cc1ccc(C#N)c(-c2cc3c(s2)c(=O)n(-c2cncc4cnn(C)c24)c(=O)n3CCC#N)c1	0.0108
COc1cnc(Cl)c(-c2cc3[nH]c(=O)n(-c4cncc5cccc(F)c45)c(=O)c3s2)c1	0.0156
